target: hNTS2 (Homo sapiens); construct: expressed in transfected cells; host or cells: CHO-K1; experiment: Radioligand competition binding with [3H]NT, membranes of CHO-K1 cells expressing hNTS2; details: Table 2; read-out: hNTS2 Geometric Mean ∀ SEM (equilibrium dissociation constant Kd)
Sequence (O95665 whole entry): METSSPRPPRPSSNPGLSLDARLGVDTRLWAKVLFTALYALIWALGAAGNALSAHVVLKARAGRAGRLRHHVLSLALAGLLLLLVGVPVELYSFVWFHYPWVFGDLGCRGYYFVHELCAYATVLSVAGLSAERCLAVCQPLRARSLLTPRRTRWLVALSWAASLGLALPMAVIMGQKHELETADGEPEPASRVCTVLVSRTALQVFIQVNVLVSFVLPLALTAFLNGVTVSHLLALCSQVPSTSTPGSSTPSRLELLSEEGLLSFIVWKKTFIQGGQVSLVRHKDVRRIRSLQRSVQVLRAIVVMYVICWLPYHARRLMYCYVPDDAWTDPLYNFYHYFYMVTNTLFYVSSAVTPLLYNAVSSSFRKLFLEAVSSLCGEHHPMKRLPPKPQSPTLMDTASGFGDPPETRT
Where a SMILES comes first, the peptide text is derived from it. [ ]: non-standard residue; d: D form. Ala(indol-4-yl) = N[C@@H](Cc1cccc2[nH]ccc12)C(=O)O; NMeR = CN[C@@H](CCCNC(=N)N)C(=O)O; pGlu = O=C1CC[C@@H](C(=O)O)N1; Tle = CC(C)(C)[C@H](N)C(=O)O; Orn = NCCC[C@H](N)C(=O)O; Dab = NCC[C@H](N)C(=O)O
metric: Kd (nM)
Lab book: enter the figure in nM, no units written.

Illustrative cases are given below, each with its answer.
molecule	assayedSystem	readingUnit	Kd
CC[C@H](C)[C@H](NC(=O)[C@H](Cc1c[nH]c2ccccc12)NC(=O)[C@@H]1CCCN1C(=O)[C@H](CCCNC(=N)N)NC(=O)[C@H](N)CCCCN)C(=O)N[C@@H](CC(C)C)C(=O)O [NT67T, [D-Lys^8,L-Trp^11]NT(8-13)] (H-[dK]RPWIL-OH; N-terminus and C-terminus assumed)	hNTS2 (Homo sapiens)	nM	8
CN[C@@H](CCCNC(=N)N)C(=O)N[C@@H](CCN)C(=O)N1CCC[C@H]1C(=O)N[C@@H](Cc1cccc2[nH]ccc12)C(=O)N[C@H](C(=O)N[C@@H](CC(C)C)C(=O)O)C(C)(C)C [NT71] (H-[NMeR][Dab]P[Ala(indol-4-yl)][Tle]L-OH; N-terminus and C-terminus assumed)	hNTS2 (Homo sapiens)	nM	1.11

Let us examine a further case.
Entry CC[C@H](C)[C@H](NC(=O)[C@H](Cc1ccc(O)cc1)NC(=O)[C@@H]1CCCN1C(=O)[C@H](CCCN)NC(=O)[C@H](CCCNC(=N)N)NC(=O)[C@@H]1CCCN1C(=O)[C@H](CCCCN)NC(=O)[C@H](CC(N)=O)NC(=O)[C@H](CCC(=O)O)NC(=O)[C@H](Cc1ccc(O)cc1)NC(=O)[C@H](CC(C)C)NC(=O)[C@@H]1CCC(=O)N1)C(=O)N[C@@H](CC(C)C)C(=O)O [NT60, [L-Orn^9]NT(1-13)] ([pGlu]LYENKPR[Orn]PYIL-OH; C-terminus assumed) : Kd on hNTS2 (Homo sapiens) = 17
